Data provenance: patent US12091425B2

molecular target: Mcl-1/Bim interaction, recombinant human Mcl-1 (171-327) (Homo sapiens); construct: made in house; assay: Cell free Mcl-1: Bim Affinity Assay (Mcl-1 HTRF); format: binding; settings: TR-FRET, 0.1 nM Mcl-1 (171-327), 0.05 nM biotin-Bim (51-76)
Sequence (Q07820 171-327): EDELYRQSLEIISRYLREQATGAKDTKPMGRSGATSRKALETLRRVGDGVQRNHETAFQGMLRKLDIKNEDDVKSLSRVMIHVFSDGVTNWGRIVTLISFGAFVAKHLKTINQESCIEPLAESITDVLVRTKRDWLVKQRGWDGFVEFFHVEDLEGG
outcome_measure: IC50

{"molecular_string": "C[C@@H]1[C@@H](C)C/C=C/[C@H](OCCN2CC(F)(F)C2)[C@@H]2CC[C@H]2CN2C[C@@]3(CCCc4cc(Cl)ccc43)COc3ccc(cc32)C(=O)NS1(=O)=O", "IC50": "0.63 nM"}
{"molecular_string": "CC[C@@H]1CCCC[C@@H](NC(C)=O)[C@@H]2CC[C@H]2CN2C[C@@]3(CCCc4cc(Cl)ccc43)COc3ccc(cc32)C(=O)NS1(=O)=O", "IC50": "1.14 nM"}
{"molecular_string": "C[C@@H]1[C@@H](C)C[C@H](CCO)/C=C/[C@@H]2CC[C@H]2CN2C[C@@]3(CCCc4cc(Cl)ccc43)COc3ccc(cc32)C(=O)NS1(=O)=O", "IC50": "0.998 nM"}

Record IC50 for all entries; do not skip any.
1. CC[C@@H]1CC/C=C/[C@H](OCc2nnn(C)n2)[C@@H]2CC[C@H]2CN2C[C@@]3(CCCc4cc(Cl)ccc43)COc3ccc(cc32)C(=O)NS1(=O)=O
2. C[C@@H]1[C@@H](C)C/C=C/[C@H](OCC(=O)N2CC(O)(C(F)(F)F)C2)[C@@H]2CC[C@H]2CN2C[C@@]3(CCCc4cc(Cl)ccc43)COc3ccc(cc32)C(=O)NS1(=O)=O

["0.616 nM", "1.2 nM"]

----------
I'd appreciate it if you could supply pIC50 values for the items below.
Target: Mcl-1/Bim interaction, recombinant human Mcl-1 (171-327) (Homo sapiens)
Construct: made in house
Assay: Cell free Mcl-1: Bim Affinity Assay (Mcl-1 HTRF)
Format: binding
Settings: cell free Mcl-1:Bim TR-FRET, recombinant human Mcl-1 (171-327)
Procedure: Cell free Mcl-1: Bim Affinity Assay (Mcl-1 HTRF) The inhibition of the Mcl-1/Bim interaction was measured using a time-resolved fluorescence resonance energy transfer (TR-FRET) assay. […] A biotinylated peptide derived from human Bim (residues 51-76) was purchased from CPC Scientific (San Jose, CA). […] The reaction plates were further incubated overnight and then were read on an Envision® multimode reader (PerkinElmer). […]
One number for each entry, as −log10 of the molar value.

Known pIC50 results, listed for orientation:
{"compound": "CN(C)C(=O)C[C@@H]1CC/C=C/[C@H](O)[C@@H]2CC[C@H]2CN2C[C@@]3(CCCc4cc(Cl)ccc43)COc3ccc(cc32)C(=O)NS1(=O)=O (single isomer, unassigned)", "test_system": "Mcl-1/Bim interaction, recombinant human Mcl-1 (171-327) (Homo sapiens)", "pIC50": 9.65}
{"compound": "C=C1[C@@H](O)[C@H](O)CC[C@@H](CC)S(=O)(=O)NC(=O)c2ccc3c(c2)N(C[C@@H]2CC[C@@H]12)C[C@@]1(CCCc2cc(Cl)ccc21)CO3 (single isomer, unassigned)", "test_system": "Mcl-1/Bim interaction, recombinant human Mcl-1 (171-327) (Homo sapiens)", "pIC50": 7.58}
{"compound": "CO[C@H](C)C[C@H]1CC/C=C/[C@H](O)[C@@H]2CC[C@H]2CN2C[C@@]3(CCCc4cc(Cl)ccc43)COc3ccc(cc32)C(=O)NS1(=O)=O (single isomer, unassigned) [Example 514]", "test_system": "Mcl-1/Bim interaction, recombinant human Mcl-1 (171-327) (Homo sapiens)", "pIC50": 9.41}
{"compound": "O=C(C[C@@H]1CC/C=C/[C@H](O)[C@@H]2CC[C@H]2CN2C[C@@]3(CCCc4cc(Cl)ccc43)COc3ccc(cc32)C(=O)NS1(=O)=O)Nc1cccc(Cl)c1 (single isomer, unassigned)", "test_system": "Mcl-1/Bim interaction, recombinant human Mcl-1 (171-327) (Homo sapiens)", "pIC50": 8.00}
{"compound": "O=C1NS(=O)(=O)[C@H](Cc2ccccc2)C/C=C/[C@H](O)[C@@H]2CC[C@H]2CN2C[C@@]3(CCCc4cc(Cl)ccc43)COc3ccc1cc32 (single isomer, unassigned)", "test_system": "Mcl-1/Bim interaction, recombinant human Mcl-1 (171-327) (Homo sapiens)", "pIC50": 7.34}
{"compound": "O=C1NS(=O)(=O)CCC[C@@H]2C[C@H]2[C@H](O)[C@@H]2CC[C@H]2CN2C[C@@]3(CCCc4cc(Cl)ccc43)COc3ccc1cc32 (single isomer, unassigned)", "test_system": "Mcl-1/Bim interaction, recombinant human Mcl-1 (171-327) (Homo sapiens)", "pIC50": 8.83}
{"compound": "C[C@@H]1[C@@H](C)C/C=C/[C@H](OCCN2CCS(=O)(=O)CC2)[C@@H]2CC[C@H]2CN2C[C@@]3(CCCc4cc(Cl)ccc43)COc3ccc(cc32)C(=O)NS1(=O)=O", "test_system": "Mcl-1/Bim interaction, recombinant human Mcl-1 (171-327) (Homo sapiens)", "pIC50": 9.44}
{"compound": "O=C1NS(=O)(=O)CCCC[C@H](O)C[C@@H]2CC[C@H]2CN2C[C@@]3(CCCc4cc(Cl)ccc43)COc3ccc1cc32 (single isomer, unassigned)", "test_system": "Mcl-1/Bim interaction, recombinant human Mcl-1 (171-327) (Homo sapiens)", "pIC50": 8.17}
{"compound": "O=C1NS(=O)(=O)CCCCC(O)C(O)C2CCC2CN2CC3(CCCc4cc(Cl)ccc43)COc3ccc1cc32 (single isomer, unassigned)", "test_system": "Mcl-1/Bim interaction, recombinant human Mcl-1 (171-327) (Homo sapiens)", "pIC50": 8.07}

Turning now to a further compound:
Dear colleague, please send me the reported pIC50 for `C[C@@H]1[C@@H](C)C/C=C/[C@H](OCCN2CCC2=O)[C@@H]2CC[C@H]2CN2C[C@@]3(CCCc4cc(Cl)ccc43)COc3ccc(cc32)C(=O)NS1(=O)=O` when you can.
9.52
